- Measured Target: T1, human CTGF (antigen of the Biacore assays) (human, UniProt P29279 27-349, limits assumed)
- T1 construct: also called human CTGF protein
- T1 sequence: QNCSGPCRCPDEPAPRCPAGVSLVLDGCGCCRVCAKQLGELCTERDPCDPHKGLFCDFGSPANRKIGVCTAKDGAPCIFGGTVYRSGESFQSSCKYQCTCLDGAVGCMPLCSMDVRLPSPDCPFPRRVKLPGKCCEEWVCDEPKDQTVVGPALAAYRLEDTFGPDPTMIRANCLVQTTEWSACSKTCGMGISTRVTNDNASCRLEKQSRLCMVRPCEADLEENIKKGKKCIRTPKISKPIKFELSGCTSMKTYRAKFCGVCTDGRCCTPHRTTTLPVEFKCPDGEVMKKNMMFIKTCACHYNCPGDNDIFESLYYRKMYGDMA
- Assay Remarks: SPR (Biacore T200), human CTGF on CM5 chip, antibody 150 ug/ml then 50 nM TGF-β1 as competitor
Attribute Measured: Percent function blocking (%)

[
  {
    "Binder": "Hu147-11wk (antibody, human IgG1, kappa, V domains shown, humanized from mab147, Hu147-VH1/VL1) VH: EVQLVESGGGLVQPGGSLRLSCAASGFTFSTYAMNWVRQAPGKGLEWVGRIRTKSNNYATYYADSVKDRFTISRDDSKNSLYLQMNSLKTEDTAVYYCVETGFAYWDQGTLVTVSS VL: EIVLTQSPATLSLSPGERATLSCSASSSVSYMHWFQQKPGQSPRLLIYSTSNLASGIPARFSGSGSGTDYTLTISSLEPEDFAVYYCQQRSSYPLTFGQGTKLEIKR",
    "Percent function blocking (%)": "50.8%"
  },
  {
    "Binder": "Hu147-14wk (antibody, human IgG1, kappa, V domains shown, humanized from mab147, Hu147-VH1/VL4; IgG1/kappa) VH: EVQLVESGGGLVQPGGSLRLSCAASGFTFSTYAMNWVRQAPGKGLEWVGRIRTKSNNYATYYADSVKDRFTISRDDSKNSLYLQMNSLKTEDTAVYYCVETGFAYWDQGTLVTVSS VL: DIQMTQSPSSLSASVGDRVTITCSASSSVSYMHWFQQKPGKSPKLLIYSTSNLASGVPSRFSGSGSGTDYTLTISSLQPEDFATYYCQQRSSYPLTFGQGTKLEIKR",
    "Percent function blocking (%)": "50.9%"
  }
]

Now consider the entry below.
Query :: Look up Percent function blocking (%) for this binder: Hu147-22wk (antibody, human IgG1, kappa, V domains shown, humanized from mab147, Hu147-VH2/VL2; IgG1/kappa) VH: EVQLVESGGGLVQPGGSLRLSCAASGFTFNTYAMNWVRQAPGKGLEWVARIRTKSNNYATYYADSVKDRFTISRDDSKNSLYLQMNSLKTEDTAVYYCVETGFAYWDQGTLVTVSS VL: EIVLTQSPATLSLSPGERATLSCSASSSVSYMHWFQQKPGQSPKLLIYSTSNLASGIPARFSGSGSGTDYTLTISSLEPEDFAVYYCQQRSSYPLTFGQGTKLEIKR
Result :: 52.3%
